System: U2OS
Assay: Multiplex assay against U2OS
Format: toxicity, cell-based
Conditions: human, 48 h, 1 µM, compound concentration 1 uM, replicate 2
Heads up, the class ranges for Total Cell Count are lower segment: < 80; middle segment: ≥ 80 and < 100; upper segment: ≥ 100

Use the examples below as a reference point.
compound=CC(C)(O)CNc1ncc(-c2ccnc(Nc3ccnc(Cl)c3)n2)c(CC2CC2)n1 qualitativelabel="middle segment"
compound="CN(C)C(=O)N[C@H]1CC[C@H](CCN2CCN(c3cccc(Cl)c3Cl)CC2)CC1.Cl [CARIPRAZINE HYDROCHLORIDE]" qualitativelabel="middle segment"
compound=CNc1nc(NCc2ccc(NS(C)(=O)=O)cc2Cl)cc(-c2ccccn2)n1 qualitativelabel="lower segment"

Note: place this compound into its band. Item: Cc1c(-c2ccc(O)cc2)n(Cc2ccc(OCCN3CCCCCC3)cc2)c2ccc(O)cc12
upper segment

Next: Cc1csc2c(N[C@@H](C)CN3CCN(S(=O)(=O)c4ccc(Cl)c(Cl)c4)CC3)ncnc12
middle segment

Repeat with COc1ncc(-c2ccc3nccc(-c4ccnnc4)c3c2)cc1NS(=O)(=O)c1ccc(F)cc1F
lower segment

----------
System: HEK-293T
Assay: Multiplex assay against HEK293T
Type: toxicity, cell-based
Conditions: human, 48 h, 1 µM, compound concentration 1 uM, replicate 1
Would you please tag the item fulfilled when its Population Healthy Nuclei (%) is 40% or above, and not fulfilled when it is below?

Here's what some known entries look like.
molecule="CN1CCC[C@@H]1CCO[C@](C)(c1ccccc1)c1ccc(Cl)cc1.O=C(O)/C=C/C(=O)O [CLEMASTINE FUMARATE]" targetortestsystem=HEK-293T qualitativelabel="not fulfilled"
molecule=COc1cc(-n2cnc3cc(-c4ccc(Cl)cc4)sc3c2=O)ccc1OCCN1CCCC1 targetortestsystem=HEK-293T qualitativelabel=fulfilled
molecule="CC(C)NCC(O)COc1ccc(CCOCC2CC2)cc1.Cl (centres undefined) [BETAXOLOL HYDROCHLORIDE]" targetortestsystem=HEK-293T qualitativelabel=fulfilled
molecule=Cn1cc(-c2[nH]c3cc(NC(=O)[C@H](N)C4CCCCC4)cc4c3c2C=NNC4=O)cn1 targetortestsystem=HEK-293T qualitativelabel="not fulfilled"

Form field: Population Healthy Nuclei (%) at least 40%? Entry: CC[C@H](C)C(=O)O[C@H]1C[C@@H](C)C=C2C=C[C@H](C)[C@H](CC[C@@H]3C[C@@H](O)CC(=O)O3)[C@H]21 [LOVASTATIN]
not fulfilled

Here is the next molecule: C[C@@H](NCCCc1cccc(C(F)(F)F)c1)c1cccc2ccccc12.Cl [CINACALCET HYDROCHLORIDE]
fulfilled

Please give the result for CN1CCN(CCOc2cc(OC3CCOCC3)c3c(Nc4c(Cl)ccc5c4OCO5)ncnc3c2)CC1 [SARACATINIB] too.
fulfilled

Next entry: COc1ncc(-c2ccc3nccc(-c4ccnnc4)c3c2)cc1NS(=O)(=O)c1ccc(F)cc1F [OMIPALISIB]
not fulfilled

For COc1cccc([C@@H](C)NCCCc2ccccc2Cl)c1.Cl [TECALCET HYDROCHLORIDE] then?
fulfilled

Another: c1cn2cc(-c3ccc4cn[nH]c4c3)nc(Nc3ccc(N4CCOCC4)cc3)c2n1 [ENTOSPLETINIB]
fulfilled

Field entry: CN1CCCC(n2nc(Cc3ccc(Cl)cc3)c3ccccc3c2=O)CC1.Cl (centres undefined) [AZELASTINE HYDROCHLORIDE]
fulfilled

Would you kindly repeat that for C=CC(=O)Nc1cccc(C(=O)Nc2ccc(Nc3cc(-c4[nH]c(SC)nc4C)ccn3)cc2)c1 ?
not fulfilled

// next record CN(C)C(=O)/C(C#N)=C/c1ccc(-c2nc3cnc4[nH]ccc4c3n2C2CCCCC2)o1
fulfilled

Moving on to O=C1NCN(c2ccccc2)C12CCN(CCCOc1ccc(F)cc1)CC2 [SPIRAMIDE]
fulfilled

Another molecule to check: Cc1c(-c2ccc(O)cc2)n(Cc2ccc(OCCN3CCCCCC3)cc2)c2ccc(O)cc12 [BAZEDOXIFENE]
fulfilled

Same again, this time with Cc1[nH]c(/C=C2\C(=O)Nc3ccc(S(=O)(=O)N(C)c4cccc(Cl)c4)cc32)c(C)c1C(=O)N1CCN(C)CC1
fulfilled

How about this molecule: C=CC(=O)Nc1ccc2ncnc(Nc3ccc(OCc4cccc(F)c4)c(Cl)c3)c2c1.Cc1ccc(S(=O)(=O)O)cc1
fulfilled

Proceed to CN(C)C(=O)N[C@H]1CC[C@H](CCN2CCN(c3cccc(Cl)c3Cl)CC2)CC1.Cl [CARIPRAZINE HYDROCHLORIDE]
fulfilled

Entry Cc1csc2c(N[C@@H](C)CN3CCN(S(=O)(=O)c4ccc(Cl)c(Cl)c4)CC3)ncnc12 please
not fulfilled
